Test system: 328373-195-R-J1-PDC complex spheroids, viability % test/control
protocol_description: Anticancer human tumor 328373-195-R-J1-PDC patient-derived head and neck squamous carcinoma cell line growth inhibition [CLK]
assay_context: curve of first compound; second compound 3.16 µM
pIC50: −log10 of the molar value.
measured_endpoint: pIC50

Here's what some known entries look like.
[
  {
    "compound": "COc1c(OCCCN2CCOCC2)ccc2c3n(c(=NC(=O)c4cnc(N)nc4)nc12)CCN3 + CN1CCN(c2cc(C(=O)Nc3cc4cc(-c5cnn(C)c5)ccc4cn3)ccn2)CC1",
    "tgt": "328373-195-R-J1-PDC complex spheroids, viability % test/control",
    "pIC50": "> 8.50"
  },
  {
    "compound": "CC(CO)NC(=O)c1cc(-c2ccc(Cl)cc2)nn(-c2cnn(C)c2)c1=O (stereo unspecified) + CN1CCN(c2cc(C(=O)Nc3cc4cc(-c5cnn(C)c5)ccc4cn3)ccn2)CC1",
    "tgt": "328373-195-R-J1-PDC complex spheroids, viability % test/control",
    "pIC50": "> 7.50"
  },
  {
    "compound": "C=CC(=O)Nc1cc(Nc2nccc(-c3cn(C)c4ccccc34)n2)c(OC)cc1N(C)CCN(C)C + CN1CCN(c2cc(C(=O)Nc3cc4cc(-c5cnn(C)c5)ccc4cn3)ccn2)CC1",
    "tgt": "328373-195-R-J1-PDC complex spheroids, viability % test/control",
    "pIC50": "> 9.02"
  },
  {
    "compound": "Nc1ccccc1NC(=O)c1ccc(CNC(=O)OCc2cccnc2)cc1 + CN1CCN(c2cc(C(=O)Nc3cc4cc(-c5cnn(C)c5)ccc4cn3)ccn2)CC1",
    "tgt": "328373-195-R-J1-PDC complex spheroids, viability % test/control",
    "pIC50": "> 7.50"
  },
  {
    "compound": "CC1(C)CCC(CN2CCN(c3ccc(C(=O)NS(=O)(=O)c4ccc(NCC5CCOCC5)c([N+](=O)[O-])c4)c(Oc4cnc5[nH]ccc5c4)c3)CC2)=C(c2ccc(Cl)cc2)C1 + CNC(=O)c1ccc(Nc2nc(OC3CCCC3)c3c(-c4ccc5nc(C)oc5c4)c[nH]c3n2)c(OC)c1",
    "tgt": "328373-195-R-J1-PDC complex spheroids, viability % test/control",
    "pIC50": "> 7.50"
  }
]

Reported pIC50 for 328373-195-R-J1-PDC complex spheroids, viability % test/control, given COc1cccc2c1C(=O)c1c(O)c3c(c(O)c1C2=O)CC(O)(C(=O)CO)CC3OC1CC(N)C(O)C(C)O1 (stereo unspecified) + CNC(=O)c1ccc(Nc2nc(OC3CCCC3)c3c(-c4ccc5nc(C)oc5c4)c[nH]c3n2)c(OC)c1 ?
> 7.50

---

System: 328373-195-R-J1-PDC complex spheroids, viability % test/control
protocol_description: Anticancer human tumor 328373-195-R-J1-PDC cell line growth inhibition [CLK];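 note: spheroids exposed to the agents for 7 days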
assay_context: second compound 0.0316 µM; first compound 0.1 µM; stronger effect = lower value
Lab note: compare viability, T/C with 20%, writing satisfied if less and not satisfied if equal or more.

Example results:
[
  {
    "compound": "CCc1c2c(nc3ccc(O)cc13)-c1cc3c(c(=O)n1C2)COC(=O)[C@]3(O)CC + CNC(=O)c1ccc(Nc2nc(OC3CCCC3)c3c(-c4ccc5nc(C)oc5c4)c[nH]c3n2)c(OC)c1",
    "qualitative_label": "satisfied"
  },
  {
    "compound": "C#Cc1c(F)ccc2cc(O)cc(-c3ncc4c(N5CC6CCC(C5)N6)nc(OCC56CCCN5CC(F)C6)nc4c3F)c12 (stereo not given) + CNC(=O)c1ccc(Nc2nc(OC3CCCC3)c3c(-c4ccc5nc(C)oc5c4)c[nH]c3n2)c(OC)c1",
    "qualitative_label": "not satisfied"
  },
  {
    "compound": "CC1(C)CCC(CN2CCN(c3ccc(C(=O)NS(=O)(=O)c4ccc(NCC5CCOCC5)c([N+](=O)[O-])c4)c(Oc4cnc5[nH]ccc5c4)c3)CC2)=C(c2ccc(Cl)cc2)C1 + CN1CCN(c2cc(C(=O)Nc3cc4cc(-c5cnn(C)c5)ccc4cn3)ccn2)CC1",
    "qualitative_label": "not satisfied"
  },
  {
    "compound": "O=c1[nH]cc(F)c(=O)[nH]1 + CNC(=O)c1ccc(Nc2nc(OC3CCCC3)c3c(-c4ccc5nc(C)oc5c4)c[nH]c3n2)c(OC)c1",
    "qualitative_label": "satisfied"
  }
]

Continue with the compound presented below.
Here's an entry: C#Cc1c(F)ccc2cc(O)cc(-c3ncc4c(N5CC6CCC(C5)N6)nc(OCC56CCCN5CC(F)C6)nc4c3F)c12 (stereo not given) + CN1CCN(c2cc(C(=O)Nc3cc4cc(-c5cnn(C)c5)ccc4cn3)ccn2)CC1 . Is its viability, T/C below 20%?
not satisfied

Entry source: PubChem BioAssay AID2060620
